System: Trypanosoma brucei
Procedure Text: DNDI: Inhibition of Human African Trypanosomiasis, SBRI 427, in vitro at 2 ug.mL-1
Type: functional
About 390 (8.9%) of roughly 4,400 compounds showed an effect of 50% or more. For the sample, strong results were picked, then their nearest neighbours and some compounds at random.
Catalogue of molecules with associated % inhibition
Recorded Metric: % inhibition (%)

> print(dat)
                                    molecule  measurement.target  measure.unit  reported
 1              CCN(C)Cc1coc(-c2cccc(F)c2)n1  Trypanosoma brucei             %       -10
 2  Fc1ccc(-c2nc(CNC3CCN(Cc4ccccc4)CC3)co2)cc1  Trypanosoma brucei             %       -17
 3  CC(C)(C)c1ccc(-c2nc(CNC3CCN(Cc4ccccc4)C3)co2)cc1 (stereo unspecified)  Trypanosoma brucei             %        55
 4  Cc1ccc(-c2nc(CNC3CCN(Cc4ccccc4)C3)co2)cc1 (stereo unspecified)  Trypanosoma brucei             %        17
 5  Oc1ccc(-c2nc(CNC3CCN(Cc4ccccc4)C3)co2)cc1 (stereo unspecified)  Trypanosoma brucei             %        33
 6  Brc1ccc(-c2nc(CNC3CCN(Cc4ccccc4)CC3)co2)cc1  Trypanosoma brucei             %        58
 7  COc1ccc(-c2nc(CNC3CCN(Cc4ccccc4)CC3)co2)cc1  Trypanosoma brucei             %        97
 8  CC1CCCN1/C(=N\O)c1cccnc1Oc1ccc(Cl)cc1 (stereo unspecified)  Trypanosoma brucei             %       -13
 9       Fc1ccc(-c2nc(Cn3ncc4c3CCCC4)co2)cc1  Trypanosoma brucei             %         1
10  FC(F)(F)c1ccc(-c2nc(CN3CCC4(CC3)OCCO4)co2)cc1  Trypanosoma brucei             %        -8
11      CCc1ccc(Oc2ncccc2/C(=N/O)n2ccnc2)cc1  Trypanosoma brucei             %         3
